Each recorded value in this set is attributed to PubChem BioAssay AID1159580.

Assay: chemical genetic growth profiling, strain panel (AID 1159580);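 further: tested at 20 µM; growth read once vehicle control cultures reached saturation at 30 °C; 1 = growth at the plate median or of vehicle wells; lower values mean less growth of the strain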
Details: S. cerevisiae deletion strains, growth OD, locus YAL013W, strain DEP1
Hit rate of the full screen: of about 5,500 compounds, about 2,000 (36%) were called active. Not shown: some 18% with an inconclusive outcome. No stated cut-off is given here; in the data, active means normalized growth mostly below about 0.91 (no sharp cut-off); inconclusive means no clear call, values can overlap the other calls; inactive means mostly above about 0.92. Some of the results follow. Where a SMILES comes first, the peptide text is derived from it.
Outcomes: active, inactive

{"columns": ["molecule", "label"],
 "data": [
  ["CCOC(=O)CNc1ccc(Cl)c(Cl)c1", "inactive"],
  ["COc1cc2c(CCNC(C)=O)c[nH]c2cc1O", "inactive"],
  ["O=c1[nH]c(=O)n(C2C[C@H](O)[C@@H](CO)O2)cc1C(F)(F)F (stereo not given in full)", "inactive"],
  ["CC(=O)NC(CCC(=O)O)C(=O)O (stereo not given)", "inactive"],
  ["O=C(O)CCCCCCCC(=O)O", "inactive"],
  ["N[C@@H](C(=O)O)[C@@H](O)[C@H](O)[C@H](O)CO", "inactive"],
  ["CC(=O)O[C@H]1C[C@@]2(C)[C@@H](C[C@@H](O)C3[C@]2(C)CC[C@H]2[C@H](C)[C@H](O)CC[C@]32C)/C1=C(/CCC=C(C)C)C(=O)O (stereo not given in full)", "inactive"],
  ["C[C@]12CCC3c4ccc(OC(=O)c5ccccc5)cc4CCC3C1CCC2=O (stereo not given in full)", "inactive"],
  ["NCCCCCC(=O)O", "inactive"],
  ["Cc1onc2c(=O)n(-c3ccccc3)nc(-c3ccccc3)c12", "inactive"],
  ["CC(=O)N[C@@H](CC(=O)O)C(=O)N[C@@H](CCC(=O)O)C(=O)O (Ac-Asp-Glu-OH)", "inactive"],
  ["COc1ccc(CCC(=O)c2c(O)cc(O[C@@H]3O[C@H](CO)C(O)[C@H](O)C3O[C@@H]3O[C@@H](C)[C@H](O)[C@@H](O)[C@H]3O)cc2O)cc1O (stereo not given in full)", "inactive"],
  ["c1ccc2c(CC3=NCCN3)cccc2c1", "inactive"],
  ["O=C(O)CCC1NCC2CC1CN1CCCCC21 (stereo not given)", "inactive"],
  ["CC(=O)c1ccc(N2C(=O)CSCC2=O)cc1", "inactive"],
  ["COc1cc(OC)c2c(=O)cc(-c3ccccc3)oc2c1", "inactive"],
  ["O=C1C2C3C=CC(C3)C2C(=O)N1c1ccc(F)c(F)c1 (stereo not given)", "inactive"],
  ["C1N2CN3CN1CN(C2)C3", "inactive"],
  ["O=C1c2ccccc2C2(c3ccccc3)NCCN12 (stereo not given)", "inactive"],
  ["Brc1cccc(C=NCc2ccccc2)c1", "active"],
  ["CCOC(=O)c1cnn(-c2ccc(N)cc2)c1C(F)(F)F", "inactive"],
  ["COc1ccc2c(c1)OCC(Cc1ccc(OC)c(O)c1)C2=O (stereo not given)", "inactive"],
  ["CCCN(CCC)S(=O)(=O)c1ccc(C(=O)NCC(=O)O)cc1", "inactive"],
  ["CC(=O)Oc1ccc2c(c1)CCC1C2CC[C@]2(C)C(=O)CCC12 (stereo not given in full)", "inactive"],
  ["O=C1CSCC(=O)N1c1ccc(F)c(Cl)c1", "inactive"],
  ["CCOC(=O)c1sc2sc(C(=O)c3ccc(Cl)cc3)c(C)c2c1C", "inactive"],
  ["COc1ccc(-c2cc(=O)c3c(OC)cc(OC)cc3o2)cc1", "inactive"],
  ["CCCN(CCC)C1Cc2cc(OC)c(OC)cc2C1", "inactive"],
  ["CN(C)CCC(c1ccccc1)c1ccccn1 (stereo not given)", "inactive"],
  ["NNC(=O)c1cnn(-c2ccc(Cl)cc2)c1C(F)(F)F", "inactive"],
  ["O=c1cccc2n1CC1CC2CN2CCCC[C@@H]12 (stereo not given in full)", "inactive"],
  ["C[C@]12CCC3c4ccc(OC(=O)CCC(=O)O)cc4CCC3C1CCC2=O (stereo not given in full)", "inactive"],
  ["Cn1c(=S)[nH]c2cc(C(F)(F)F)ccc21", "inactive"],
  ["C=C[C@@]1(C)CC(=O)[C@@]2(O)[C@](C)(O1)[C@@H](OC(C)=O)[C@@H](O)C1C(C)(C)CC[C@H](O)[C@@]12C (stereo not given in full)", "inactive"],
  ["O=C(O)C(O)C(O)C(=O)O (stereo not given)", "inactive"]
]}

* * *

Experiment: chemical genetic growth profiling, strain panel (AID 1159580)
Details: S. cerevisiae deletion strains, growth OD, locus YMR307W, strain GAS1, hits give low values
Hit rate of the full screen: of about 5,500 compounds, about 2,000 (36%) were called active. Roughly 18% stayed inconclusive and do not appear here. The list shows a part of the results.

{"columns": ["compound", "normalized growth"],
 "data": [
  ["CC(=O)O[C@H]1C[C@@H](OC(C)=O)C(C)(C)C2C[C@@H](O)[C@]3(C)C(CC[C@@]4(C)[C@H](c5ccoc5)OC(=O)[C@H]5O[C@]543)[C@]21C (stereo partly drawn)", 1.01],
  ["Cc1ccccc1N1CCN(S(=O)(=O)C[C@]23CCC(CC2NC(=O)[C@@H](N)CCS(C)(=O)=O)C3(C)C)CC1 (stereo partly drawn)", 0.99],
  ["Cc1onc(-c2ccccc2)c1-c1ccc(S(N)(=O)=O)cc1", 0.977]
]}

* * *

Test: chemical genetic growth profiling, strain panel (AID 1159580);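 further: tested at 20 µM; growth read once vehicle control cultures reached saturation at 30 °C; 1 = growth at the plate median or of vehicle wells; lower values mean less growth of the strain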
Settings: S. cerevisiae deletion strains, growth OD, locus YLR268W, strain sec22, hits give low values
About 2,000 (36%) of roughly 5,500 compounds were called active. Not shown: some 18% with an inconclusive outcome. The list shows a part of the results.
normalized growth values by entry

{"columns": ["compound", "normalized growth"],
 "data": [
  ["CC1CCC(NC(=O)N(CCCl)N=O)CC1 (stereo unspecified)", 0.894],
  ["C[C@]12C=CC(=O)C=C1CCC1C2[C@@H](O)C[C@@]2(C)C1CC[C@]2(O)C(=O)CO (stereo partly specified)", 0.948],
  ["COC1C=CC23c4cc5c(cc4CN(CC2O)[C@@H]3C1)OCO5 (stereo partly specified)", 0.974],
  ["O=c1[nH]c(=O)n(C2C[C@H](O)[C@@H](CO)O2)cc1C(F)(F)F (stereo partly specified)", 0.962],
  ["CC(C)=CC1C(C(=O)OCc2cccc(Oc3ccccc3)c2)C1(C)C (stereo unspecified)", 0.993],
  ["COc1cc(C)c2c(=O)cc(-c3ccccc3)oc2c1", 0.958]
]}

* * *

normalized growth values by entry
Assay: chemical genetic growth profiling, strain panel (AID 1159580);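 further: tested at 20 µM; growth read once vehicle control cultures reached saturation at 30 °C; 1 = growth at the plate median or of vehicle wells; lower values mean less growth of the strain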
Conditions: S. cerevisiae deletion strains, growth OD, locus YCL069W, strain vba3, hits give low values
In all, about 5,500 compounds went through this assay and about 2,000 (36%) were called active. Not shown: some 18% with an inconclusive outcome. The list shows a part of the results.

{"columns": ["compound", "normalized growth"],
 "data": [
  ["COc1ccc2c(c1)OCC(Cc1ccc(OC)c(O)c1)C2=O (stereo not given)", 0.956],
  ["C[C@]12CCC3c4ccc(OC(=O)c5ccccc5)cc4CCC3C1CCC2=O (stereo not given in full)", 0.986],
  ["CC(=O)O[C@@H]1CC2C(C)(C)[C@H](O)CC[C@]2(C)C2CC[C@@]3(C)[C@H](c4ccoc4)OC(=O)C4OC43[C@@]21C (stereo not given in full)", 1],
  ["Clc1ccccc1CN1CCc2sccc2C1", 1.01],
  ["CC1(C)N([O-])[N+](=O)C1(C)Br (stereo not given)", 0.969]
]}

* * *

Assay: chemical genetic growth profiling, strain panel (AID 1159580);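 further: tested at 20 µM; growth read once vehicle control cultures reached saturation at 30 °C; 1 = growth at the plate median or of vehicle wells; lower values mean less growth of the strain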
Conditions: S. cerevisiae deletion strains, growth OD, locus YAL021C, strain ccr4, hits give low values
Among all 5,500 compounds or so, about 2,000 (36%) were called active. About 18% were inconclusive and are not listed. This is one part of the list.
normalized growth values by entry
quantityName: normalized growth

{"columns": ["compound", "measured"],
 "data": [
  ["CCN1C[C@@]2(COC)C3[C@@H](OC)[C@H]4[C@@H]1[C@]3(C(OC)C[C@H]2O)C1C[C@@]2(O)[C@H](OC(=O)c3ccccc3)C1[C@]4(OC(C)=O)[C@@H](O)[C@@H]2OC (some centres not stated)", 1.03],
  ["CC(=O)Oc1c2c(c(CC=C(C)C)c3c1C(=O)C1=C[C@@H]4CC5C(C)(C)OC(C/C=C(\\C)C(=O)O)(C4=O)[C@@]15O3)OC(C)(CCC=C(C)C)C=C2 (some centres not stated)", 0.99],
  ["CCCCC(=O)O[C@]1(C(=O)CO)CCC2C3CCC4=CC(=O)CC[C@]4(C)C3[C@@H](O)C[C@@]21C (some centres not stated)", 0.974],
  ["COP(=S)(OC)Oc1ccc([N+](=O)[O-])cc1", 1.01],
  ["C=NC(C(=O)NC1C(=O)N2C1SC(C)(C)C2C(=O)O)c1ccccc1 (configuration not stated)", 0.991],
  ["NCCCNCCSP(=O)(O)O", 0.985],
  ["Clc1ccc(C(c2ccccc2Cl)C(Cl)Cl)cc1 (configuration not stated)", 1.07]
]}
